target: T1, full length human GPC3 His (human, UniProt P51654 25-559, limits assumed)
T1 construct: also called full length human GPC3 protein; not shown: His tag
methodSummary: SPR (Biacore T200), full length human GPC3 His immobilised, IgG1 in solution
assayReadout: RuMax

Query string: What value of RuMax has been recorded for this entry: anti-human GPC3 IgG1 antibody clone 17 (antibody, V domains shown) VH: CQSVEESGGRLVTPGTPLTLTCTVSGFSLSTYDMSWVRQAPGKGLEYIGWINSGGSPYYARWAKGRFTISKTSSTTVDLKMTSPTTEDTATYFCARHRSGYYGDIWGPGTLVTVSL VL: DPVLTQTPSSVSAAVGDTVSINCQSSQNVYKNRLAWYQQKPGQPPKLLIYGASTLASGVPSRFKGSGSGTQFTLTISDLECDDAATYYCAGGYSTIVDNTFGGGTEVVVKR
Result string: 10.7

Query string: What do you have for anti-human GPC3 IgG1 antibody clone 121 (antibody, V domains shown) VH: CQSVEESGGRLVTPGTPLTLTCTVSGFSLSTYWMTWVRQAPGKGLEWIGIINPAGSAYYASWAKGRFTISKTSSATVDLKMTSLTAVDTATYFCAGGGGMDPWGPGTLVTVSS VL: DPVLTQTPSSVSAAVGGTVTISCQSSQNIIKDYLSWFQQKPGQPPKRLIYKTSTLPSGVPSRFKGSGSGTEFTLTISDLECDDAATYYCAASYSGNIYVFGGGTEVVVKR ?
Result string: 2

This collection of values is drawn from patent US12492252.
